target: T1, AFP158/HLA-A*02:01 complex (human); experiment: SPR, crude scFv captured, pMHC analyte;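 also: complex injected at several concentrations over the chip, association phase then running buffer for dissociation, KD derived from on- and off-rates computed from both curves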
T1 construct: flowed as analyte in SPR
QUANTITY KIND: koff (s⁻¹)

AS170036 VL1VH1-56Y98Q108A (scFv, also called 46-AS170036 VL1VH1-56Y98Q108A) scFv: QSALTQPRSVSGSPGQSVTISCAGTSSDVGSENYVSWYQQHPGKAPKLMIYQVNKRASGVPDRFSGSKSGNTASLTISGLQAEDEADYYCASYRSSDQNIVFGGGTKLTVLGGGGSGGGGSGGGGSEVQLVESGGGLVQPGGSLRLSCAASGFTFSSYAMSWVRQAPGKGLEWVSTINSGTYSPYYADSVKGRFTISRDNSKNTLYLQMNSLRAEDTAVYYCAKNFFDGSWFLAPPAMDYWGQGTLVTVSSHHHHHH    0.00028
AS170036 VL1VH1 (scFv, Crude scFv from E. coli TG1 supernatant; also called AS170036 VL1VH1 scFv) scFv: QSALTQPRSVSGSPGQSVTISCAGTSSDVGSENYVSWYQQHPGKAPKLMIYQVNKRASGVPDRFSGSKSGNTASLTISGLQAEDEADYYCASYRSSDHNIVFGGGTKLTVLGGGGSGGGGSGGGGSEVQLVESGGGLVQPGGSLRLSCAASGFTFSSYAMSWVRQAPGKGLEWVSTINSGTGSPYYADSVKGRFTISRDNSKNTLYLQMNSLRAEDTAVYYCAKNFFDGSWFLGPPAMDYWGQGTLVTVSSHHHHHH    0.11
AS170036 VL1VH1-57M98Q108A (scFv, also called 82-AS170036 VL1VH1-57M98Q108A) scFv: QSALTQPRSVSGSPGQSVTISCAGTSSDVGSENYVSWYQQHPGKAPKLMIYQVNKRASGVPDRFSGSKSGNTASLTISGLQAEDEADYYCASYRSSDQNIVFGGGTKLTVLGGGGSGGGGSGGGGSEVQLVESGGGLVQPGGSLRLSCAASGFTFSSYAMSWVRQAPGKGLEWVSTINSGTGMPYYADSVKGRFTISRDNSKNTLYLQMNSLRAEDTAVYYCAKNFFDGSWFLAPPAMDYWGQGTLVTVSSHHHHHH    0.0012

Hey, just so you know, these numbers are from patent US20240279318A1.
